TESTED TARGET: Androgen receptor (Homo sapiens)
Sequence (P10275 whole entry): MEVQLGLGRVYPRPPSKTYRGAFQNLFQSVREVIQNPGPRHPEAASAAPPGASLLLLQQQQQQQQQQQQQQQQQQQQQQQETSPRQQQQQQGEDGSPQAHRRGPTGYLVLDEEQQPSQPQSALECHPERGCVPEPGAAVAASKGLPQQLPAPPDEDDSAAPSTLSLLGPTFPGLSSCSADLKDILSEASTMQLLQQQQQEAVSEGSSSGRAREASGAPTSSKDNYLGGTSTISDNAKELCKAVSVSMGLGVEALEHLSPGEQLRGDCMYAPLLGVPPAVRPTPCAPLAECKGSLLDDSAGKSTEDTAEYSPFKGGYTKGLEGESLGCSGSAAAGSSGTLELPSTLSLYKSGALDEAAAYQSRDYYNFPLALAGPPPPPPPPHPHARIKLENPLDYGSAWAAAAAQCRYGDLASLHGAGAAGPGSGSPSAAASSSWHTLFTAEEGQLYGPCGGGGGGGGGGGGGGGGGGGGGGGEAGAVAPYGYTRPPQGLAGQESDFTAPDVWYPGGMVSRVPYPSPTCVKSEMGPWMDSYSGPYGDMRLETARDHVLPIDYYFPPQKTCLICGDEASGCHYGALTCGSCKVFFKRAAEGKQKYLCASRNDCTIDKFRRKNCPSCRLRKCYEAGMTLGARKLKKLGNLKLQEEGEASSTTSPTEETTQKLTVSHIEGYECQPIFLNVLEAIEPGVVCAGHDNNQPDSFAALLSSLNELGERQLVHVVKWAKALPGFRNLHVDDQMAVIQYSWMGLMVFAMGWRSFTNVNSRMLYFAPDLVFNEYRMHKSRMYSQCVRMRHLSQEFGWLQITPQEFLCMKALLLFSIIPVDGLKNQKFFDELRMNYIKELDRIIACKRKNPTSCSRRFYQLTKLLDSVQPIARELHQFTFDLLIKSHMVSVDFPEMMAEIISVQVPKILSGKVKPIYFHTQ
MEASURE NAME: IC50 (nM)
Output spec: scalar in nM, unitless text.

Worked cases, IC50 given:
Record `C[C@]12CN(S(=O)(=O)c3ccc(F)cc3)C[C@](C)(O1)[C@@H]1C(=O)N(c3ccc(C#N)c(C(F)(F)F)c3)C(=O)[C@@H]12` : what is its IC50 with Androgen receptor (Homo sapiens)?
685

Record `CC(C)N1C(=O)[C@]2(C)O[C@](C)(C1=O)[C@H]1C(=O)N(c3ccc(C#N)c(C(F)(F)F)c3)C(=O)[C@H]12` : what is its IC50 with Androgen receptor (Homo sapiens)?
125

***
Record `C[C@]12CN(C(=O)c3ccccc3)C[C@](C)(O1)[C@@H]1C(=O)N(c3ccc(C#N)c(C(F)(F)F)c3)C(=O)[C@@H]12` : what is its IC50 with Androgen receptor (Homo sapiens)?
177

Record `C[C@]12O[C@](C)(C(=O)N(CC3CC3)C1=O)[C@H]1C(=O)N(c3ccc(C#N)c(C(F)(F)F)c3)C(=O)[C@H]12` : what is its IC50 with Androgen receptor (Homo sapiens)?
3330

Record `C[C@]12CN(C(=O)C3CC3)C[C@](C)(O1)[C@@H]1C(=O)N(c3ccc(C#N)c(C(F)(F)F)c3)C(=O)[C@@H]12` : what is its IC50 with Androgen receptor (Homo sapiens)?
404

Record `C[C@]12CN(S(=O)(=O)c3ccccn3)C[C@](C)(O1)[C@@H]1C(=O)N(c3ccc(C#N)c(C(F)(F)F)c3)C(=O)[C@@H]12` : what is its IC50 with Androgen receptor (Homo sapiens)?
1240

----------
// IC50 collected for Androgen receptor (Homo sapiens)
Output spec: scalar in nM, unitless text.

Worked cases, IC50 given:
Record `C[C@]12CN(c3cc(Cl)ncn3)C[C@](C)(O1)[C@@H]1C(=O)N(c3ccc(C#N)c(C(F)(F)F)c3)C(=O)[C@@H]12` : what is its IC50 with Androgen receptor (Homo sapiens)?
11

Record `C[C@]12CN(c3cccc(S(N)(=O)=O)c3)C[C@](C)(O1)[C@@H]1C(=O)N(c3ccc(C#N)c(C(F)(F)F)c3)C(=O)[C@@H]12` : what is its IC50 with Androgen receptor (Homo sapiens)?
37

Record `C[C@]12CN(S(C)(=O)=O)C[C@](C)(O1)[C@@H]1C(=O)N(c3ccc(C#N)c(C(F)(F)F)c3)C(=O)[C@@H]12` : what is its IC50 with Androgen receptor (Homo sapiens)?
205

***
Record `CCCOC(=O)N1C[C@@]2(C)O[C@@](C)(C1)[C@@H]1C(=O)N(c3ccc(C#N)c(C(F)(F)F)c3)C(=O)[C@@H]12` : what is its IC50 with Androgen receptor (Homo sapiens)?
9.3

Record `CON1C[C@@]2(C)O[C@@](C)(C1)[C@@H]1C(=O)N(c3ccc(C#N)c(C(F)(F)F)c3)C(=O)[C@@H]12` : what is its IC50 with Androgen receptor (Homo sapiens)?
24

Record `C[C@]12CN(S(=O)(=O)c3ccccn3)C[C@](C)(O1)[C@@H]1C(=O)N(c3ccc(C#N)c(C(F)(F)F)c3)C(=O)[C@@H]12` : what is its IC50 with Androgen receptor (Homo sapiens)?
170

----------
Each entry below carries its reported inhibition at 5 µM.
System: MDA-MB-435
TEST DESCRIPTION: Cytotoxicity against human MDA-MB-435 cells assessed as inhibition of DHT-induced cell growth at 5 uM
Type: functional

Worked cases, inhibition at 5 µM given:
Consider the molecule shown here: `C[C@]12CN(C(=O)C3CC3)C[C@](C)(O1)[C@@H]1C(=O)N(c3ccc(C#N)c(C(F)(F)F)c3)C(=O)[C@@H]12` What is its recorded inhibition at 5 µM?
99%

Consider the molecule shown here: `CCNC(=O)N1C[C@@]2(C)O[C@@](C)(C1)[C@@H]1C(=O)N(c3ccc(C#N)c(C(F)(F)F)c3)C(=O)[C@@H]12` What is its recorded inhibition at 5 µM?
97%

Consider the molecule shown here: `C[C@]12CN(S(=O)(=O)c3ccc(F)cc3)C[C@](C)(O1)[C@@H]1C(=O)N(c3ccc(C#N)c(C(F)(F)F)c3)C(=O)[C@@H]12` What is its recorded inhibition at 5 µM?
100%

Consider the molecule shown here: `C[C@]12CN(c3cc(Cl)ncn3)C[C@](C)(O1)[C@@H]1C(=O)N(c3ccc(C#N)c(C(F)(F)F)c3)C(=O)[C@@H]12` What is its recorded inhibition at 5 µM?
98%

Consider the molecule shown here: `C[C@]12CNC[C@](C)(O1)[C@@H]1C(=O)N(c3ccc(C#N)c(C(F)(F)F)c3)C(=O)[C@@H]12` What is its recorded inhibition at 5 µM?
98%

***
Consider the molecule shown here: `C[C@]12CN(C(=O)c3ccccc3)C[C@](C)(O1)[C@@H]1C(=O)N(c3ccc(C#N)c(C(F)(F)F)c3)C(=O)[C@@H]12` What is its recorded inhibition at 5 µM?
99%

Consider the molecule shown here: `CC(C)C(=O)N1C[C@@]2(C)O[C@@](C)(C1)[C@@H]1C(=O)N(c3ccc(C#N)c(C(F)(F)F)c3)C(=O)[C@@H]12` What is its recorded inhibition at 5 µM?
98%
